Let's go through some recorded pIC50 values for Sulfide:quinone oxidoreductase, mitochondrial (Homo sapiens) together.
pIC50 is defined as minus the log10 of a concentration measured in mol/L.

Check the records and state pIC50 for COc1nc(-c2ccccc2)cc(-c2ccc(Cl)cc2)c1C#N 6.60

Please report pIC50 for the following compound: N#Cc1c(-c2ccccc2)cc(-c2ccccc2)nc1OCc1ccccc1 7.00

Provide only the value of recorded pIC50 for COc1nc(-c2cccnc2)cc(-c2ccc(F)cc2)c1C#N 6.67

Using the record for Cc1cccnc1-c1cc(-c2ccc(F)cc2)c(C#N)c(OCc2cccnc2)n1 , state its measured pIC50. 7.44
